Can you tell me z-score for the items I'm about to list?
- TEST METHOD NOTES: MM1S cell viability effects, profiling panel, calcein-AM fluorescence, 48 h, basal (AID 1165);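 note: viability of MM1S multiple myeloma cells under basal unstimulated conditions; test concentration not given here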
- REPORTED CONDITIONS: higher = more signal
API doc: respond with a numeric literal and nothing else, no unit.

Record "[N-]=[N+]=Nc1ccccc1[C@@H]1OC(c2ccc(OCCCO)cc2)=N[C@]1(Cc1ccccc1)C(=O)N1CCOCC1" . Reported z-score: -3

The recorded z-score for entry "CC(C)CNC(=O)[C@@]1(Cc2ccccc2I)c2ccccc2C(=O)N(C2CCCCC2)[C@H]1c1ccc(CO)cc1" equals -1.45

z-score in this record for "C=C(CCCC)/C(=C/C[C@H](OC(=O)c1ccncc1)c1ccccc1OCCO)c1cnc2ccccc2c1" : -3.3

The value of z-score measured for the compound "C=C[C@@H](COC(=O)OC(C)(C)C)N(Cc1ccc(OC)cc1)S(=O)(=O)c1ccc(Br)cc1" turned out to be -3.08

###

- TEST METHOD NOTES: small-molecule microarray binders of probe aEGFR, primary screen, biochemical, biotinylated probe, 635/667 nm fluorescence (AID 1097);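 note: probe is a biotinylated anti-EGFR antibody binding compounds printed on slides; score combines fluorescence near 667 nm and signal to noise of each spot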
- REPORTED CONDITIONS: higher = more signal
Classification field: enter true (1) for composite z-score values not below -0.0004, false (0) for values below it.

Query: Given "CCOC(=O)[C@H]1C/C=C/C[C@H](C(=O)OCC)C(=O)O[C@H]2[C@@H](OC)O[C@H](CO)[C@@H](OC(=O)c3c(OC)cccc3OC)[C@@H]2OC1=O" , state whether its composite z-score is at least -0.0004.
Response: false (0)

Query: Check this molecule for composite z-score at or above -0.0004: "C=C[C@H](CO)NS(=O)(=O)c1ccc(Br)cc1"
Response: false (0)

Query: Answer whether composite z-score of "O=C1O[C@@H](c2ccccc2)[C@@H](c2ccccc2)N2[C@@H](c3ccccc3OCCO)[C@]3(C(=O)Nc4ccc(C#CC5=CCCCC5)cc43)[C@@H](C(=O)N3CCCCCCC3)[C@H]12" is greater than or equal to -0.0004.
Response: true (1)

Query: Textbook exercise: given the entry "C=CCOC(=O)[C@H]1[C@@H]2C(=O)O[C@@H](c3ccccc3)[C@@H](c3ccccc3)N2[C@@H](c2ccc(OCCOC(=O)[C@@H]3C[C@@H]4C(=O)N[C@@H](CCCCNC(C)=O)C(=O)N4[C@@H]3c3ccc(O)cc3)cc2)[C@]12C(=O)Nc1ccccc12" , state whether its composite z-score is greater than or equal to -0.0004.
Response: false (0)

Query: Identify whether the reported composite z-score of the following molecule is -0.0004 or greater: COc1cc2c(cc1O)C(c1cccs1)N(C)CC2 (stereo not drawn)
Response: false (0)

Query: Is composite z-score for "C=CCN1C(=O)[C@@]2(CC=C)N=C(c3ccc(OCCCO)cc3)O[C@H]2c2ccccc21" at or above -0.0004?
Response: true (1)

Query: Exam item: decide whether the reported composite z-score for COc1cc(NN2C(C(O)c3ccco3)C=CC3C(=O)N(c4ccccc4)C(=O)C32)cc(OC)c1OC (stereo not drawn) is at least -0.0004.
Response: false (0)

Query: Reported composite z-score reaches at least -0.0004 for "COC(=O)[C@@]1(Cc2ccc(OC)cc2)[C@H]2c3cc(C(=O)N(C)C)n(Cc4ccc(S(C)(=O)=O)cc4)c3C[C@H]2CN1C(=O)c1ccccc1" ?
Response: true (1)

Query: Would you say "C=C(CCCC)/C(=C/C[C@@H](OC(C)=O)c1ccc(OCCO)cc1)c1cnc2ccccc2c1" shows composite z-score at minimum -0.0004?
Response: true (1)

Query: # check: composite z-score of "CCCCCCc1nc(-c2cc(C)c(OC)c(C)c2)cc2c1[Si](C(C)C)(C(C)C)OC2" is greater than or equal to -0.0004
Response: false (0)

Query: Given "C=CC[C@@]12N=C(c3ccc(OCCCO)cc3)O[C@@H]1c1ccccc1N(C)C2=O" , state whether its composite z-score is at least -0.0004.
Response: true (1)

Query: In plain terms: is recorded composite z-score at least -0.0004 for "C[N+](C)(C)CCCCCCNC(=O)[C@@H]1C[C@@H]2C(=O)N[C@@H](Cc3ccccc3)C(=O)N2[C@@H]1c1cccc(OCCO)c1" ?
Response: false (0)

Query: Could you verify whether the entry "Cc1ccc(N2C(=O)c3ccccc3[C@@H](C(=O)NC3CC3)[C@@H]2c2ccc(CO)cc2)nc1" shows composite z-score of no less than -0.0004?
Response: false (0)

Query: Entry "C=CCNC(=O)[C@@H]1[C@H]2C(=O)O[C@H](c3ccccc3)[C@H](c3ccccc3)N2[C@H](c2ccc(OCCO)cc2)[C@@]12C(=O)Nc1ccc(C#CCC(C(=O)OC)C(=O)OC)cc12" : is its composite z-score no less than -0.0004?
Response: false (0)

Query: Test whether the molecule "CN(C)C(=O)[C@@]1(CCS(=O)(=O)c2ccccc2)COC(c2ccc(OCCCO)cc2)=N1" records composite z-score of -0.0004 or higher.
Response: true (1)

Query: Has "COC(=O)[C@H](Cc1ccccc1)N1CC2=C[C@@H](C3CC3)n3c(=O)n(C)c(=O)n3[C@H]2[C@@H]1[C@@H](O)Cc1ccccc1" a recorded composite z-score greater than or equal to -0.0004?
Response: true (1)

Query: Answer whether composite z-score of "COc1ccc([Si](C)(C)[C@H]2[C@H](CC(=O)N3Cc4ccccc4C[C@H]3CO)O[C@@]3(C(=O)N(Cc4cccc(N5CCC5=O)c4)c4ccccc43)[C@@H]2C)cc1" is greater than or equal to -0.0004.
Response: true (1)

Query: Identify whether the reported composite z-score of the following molecule is -0.0004 or greater: "C=C[C@H](C)[C@@H](OC(=O)Nc1ccc(OC)cc1)c1ccc(O)c2ccccc12"
Response: false (0)

Query: Textbook exercise: given the entry "C[N+](C)(C)CCCC[C@@H]1NC(=O)[C@H]2C[C@@H](C(=O)NCCCCCCNC(=O)CS)[C@@H](c3cccc(OCCO)c3)N2C1=O" , state whether its composite z-score is greater than or equal to -0.0004.
Response: false (0)

Query: I'd appreciate it if you could say whether "CO[C@H]1O[C@H](CO)[C@@H](OC(=O)Nc2cccc(F)c2)[C@H](OC(=O)Nc2ccccc2)[C@@H]1OC(=O)Nc1ccccc1" has composite z-score at least equal to -0.0004.
Response: true (1)

Query: Assess whether reported composite z-score for "COCCOC(=O)N1C(=O)[C@@]2(c3ccccc31)[C@H](c1ccc(O)cc1)N1[C@H](c3ccccc3)[C@H](c3ccccc3)OC(=O)[C@H]1[C@@H]2C(=O)Nc1nc2ccccc2s1" sits at -0.0004 or higher.
Response: true (1)

Query: Decide: is the reported value of composite z-score for "C[N+](C)(C)CCCCNC(=O)[C@H]1C[C@H]2C(=O)N3CCC[C@H]3C(=O)N2[C@H]1c1cccc(OCCO)c1" equal to or greater than -0.0004?
Response: false (0)

Query: For this molecule, is measured composite z-score -0.0004 or higher? "CCCC[C@H]1OB(O)C[C@H]2C1=C(COC)C[C@H]1C(=O)N(C)C(=O)[C@H]12"
Response: false (0)

Query: Please tell me: is the molecule "COCCOC(=O)N1C(=O)[C@@]2(c3cc(C#CC4(O)CCCCCC4)ccc31)[C@H](c1ccccc1OCCO)N1[C@H](c3ccccc3)[C@H](c3ccccc3)OC(=O)[C@H]1[C@@H]2C(=O)N1CCN(c2ncccn2)CC1" at or over -0.0004 in terms of composite z-score?
Response: true (1)

Query: Is it the case that "[N-]=[N+]=NCc1ccccc1C[C@]1(C(N)=O)COC(c2ccc(OCCCO)cc2)=N1" has composite z-score reaching or exceeding -0.0004?
Response: true (1)

Query: Evaluate "COC(=O)[C@]1(CCC(=O)OC(C)(C)C)N=C(c2ccc(OCCCO)cc2)O[C@@H]1c1ccccc1CN=[N+]=[N-]" : composite z-score at minimum -0.0004?
Response: true (1)

Query: Could you please find out whether "Cc1ccc(S[C@]2(C(=O)O)CC(=O)N(C(C)C)[C@@H]2c2ccc(CO)cc2I)cc1" has composite z-score that meets -0.0004 or exceeds it?
Response: true (1)

###

- TEST METHOD NOTES: small-molecule microarray binders of probe aWnt5a, primary screen, biochemical, biotinylated probe, 635/667 nm fluorescence (AID 1113);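 note: score merges 667 nm fluorescence intensity with signal-to-noise per printed feature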
- REPORTED CONDITIONS: higher = more signal
OUTCOME MEASURE: composite z-score
Just the number, please, no unit after it.

Notebook: C=CCC(OC(C)=O)[C@@H]1[C@@H](N(Cc2cc3ccccc3o2)C(=O)c2cccc3ccccc23)c2cc(OCCCO)ccc2N1C(=O)c1ccc(-c2ccccc2)cc1 (some centres not stated) , composite z-score read as 0.0368

# composite z-score of COc1cc2c(cc1O)C(c1cccs1)N(C)CC2 (configuration not stated) = -0.126

composite z-score reading for "C=CCOC(=O)[C@H]1[C@@H]2C(=O)O[C@@H](c3ccccc3)[C@@H](c3ccccc3)N2[C@@H](c2ccc(OCCOC(=O)[C@@H]3C[C@@H]4C(=O)N[C@@H](CCCCNC(C)=O)C(=O)N4[C@@H]3c3ccc(O)cc3)cc2)[C@]12C(=O)Nc1ccccc12" : -0.0704

Lookup result for CC(=O)n1cc(C(O)C2C=CC3C(=O)N(c4ccccc4)C(=O)C3N2Nc2ccc([N+](=O)[O-])cc2)c2ccccc21 (configuration not stated) ; measured composite z-score: -0.0459

Recorded result, "COC(=O)[C@@]1(Cc2ccc(OC)cc2)[C@H]2c3cc(C(=O)N(C)C)n(Cc4ccc(S(C)(=O)=O)cc4)c3C[C@H]2CN1C(=O)c1ccccc1" , composite z-score: -0.242

// "COC(=O)[C@@]1(Cc2ccc(F)cc2)[C@H]2c3cc(C(=O)N(C)C)n(Cc4ccccc4)c3C[C@H]2CN1C(=O)c1ccccc1" : composite z-score value = -0.0977

Sample "C=CC[C@]1(C(=O)NCc2ccccc2)N=C(c2ccc(OCCCO)cc2)O[C@H]1c1ccccc1N=[N+]=[N-]" ; composite z-score observed: 0.0108
